Value source: patent US20230057987A1

Biological target: T1, similar peptide SP-05-0001, source protein not stated peptide on HLA-A*02:01 (human)
T1 peptide: HIMEHLEGV
Test: killing
Metric: binding result

>>> endpoint_value("TCR-12 (TCR, V domains shown) Valpha: QLLEQSPQFLSIQEGENLTVYCNSSSVFSSLQWYRQEPGEGPVLLVTVVTGGEVKKLKRLTFQFGDARKDSSLHITAAQPGDTGLYLCAGGLSDSYDKVIFGPGTSLSVIP Vbeta: EVTQTPKHLVMGMTNKKSLKCEQHMGHRAMYWYKQKAKKPPELMFVYSYEKLSINESVPSRFSPECPNSSLLNLHLHALQPEDSALYLCASSQGVGQEYGYTFGSGTRLTVV")
"no recognition"
>>> endpoint_value("TCR-8 (TCR, V domains shown) Valpha: QKVTQAQTEISVVEKEDVTLDCVYETRDTTYYLFWYKQPPSGELVFLIRRNSFDEQNEISGRYSWNFQKSTSSFNFTITASQVVDSAVYFCALSGRGSGTYKYIFGTGTRLKVLA Vbeta: GVIQSPRHLIKEKRETATLKCYPIPRHDTVYWYQQGPGQDPQFLISFYEKMQSDKGSIPDRFSAQQFSDYHSELNMSSLELGDSALYFCASSAGTSYNEQFFGPGTRLTVL")
"no recognition"
>>> endpoint_value("TCR-15 (TCR, V domains shown) Valpha: KQEVTQIPAALSVPEGENLVLNCSFTDSAIYNLQWFRQDPGKGLTSLLLIQSSQREQTSGRLNASLDKSSGRSTLYIAASQPGDSATYLCAVLLTGKLIFGQGTTLQVKP Vbeta: GVTQTPRYLIKTRGQQVTLSCSPISGHRSVSWYQQTPGQGLQFLFEYFSETQRNKGNFPGRFSGRQFSNSRSEMNVSTLELGDSALYLCASSGGPGPSGEQYFGPGTRLTVT")
"no recognition"
